Biological target: human TRPM8 receptor expressed in transfected 293H cells (Homo sapiens, UniProt Q7Z2W7)
Construct: expressed in transfected cells; host or cells: 293H cells
Sequence (Q7Z2W7 whole entry): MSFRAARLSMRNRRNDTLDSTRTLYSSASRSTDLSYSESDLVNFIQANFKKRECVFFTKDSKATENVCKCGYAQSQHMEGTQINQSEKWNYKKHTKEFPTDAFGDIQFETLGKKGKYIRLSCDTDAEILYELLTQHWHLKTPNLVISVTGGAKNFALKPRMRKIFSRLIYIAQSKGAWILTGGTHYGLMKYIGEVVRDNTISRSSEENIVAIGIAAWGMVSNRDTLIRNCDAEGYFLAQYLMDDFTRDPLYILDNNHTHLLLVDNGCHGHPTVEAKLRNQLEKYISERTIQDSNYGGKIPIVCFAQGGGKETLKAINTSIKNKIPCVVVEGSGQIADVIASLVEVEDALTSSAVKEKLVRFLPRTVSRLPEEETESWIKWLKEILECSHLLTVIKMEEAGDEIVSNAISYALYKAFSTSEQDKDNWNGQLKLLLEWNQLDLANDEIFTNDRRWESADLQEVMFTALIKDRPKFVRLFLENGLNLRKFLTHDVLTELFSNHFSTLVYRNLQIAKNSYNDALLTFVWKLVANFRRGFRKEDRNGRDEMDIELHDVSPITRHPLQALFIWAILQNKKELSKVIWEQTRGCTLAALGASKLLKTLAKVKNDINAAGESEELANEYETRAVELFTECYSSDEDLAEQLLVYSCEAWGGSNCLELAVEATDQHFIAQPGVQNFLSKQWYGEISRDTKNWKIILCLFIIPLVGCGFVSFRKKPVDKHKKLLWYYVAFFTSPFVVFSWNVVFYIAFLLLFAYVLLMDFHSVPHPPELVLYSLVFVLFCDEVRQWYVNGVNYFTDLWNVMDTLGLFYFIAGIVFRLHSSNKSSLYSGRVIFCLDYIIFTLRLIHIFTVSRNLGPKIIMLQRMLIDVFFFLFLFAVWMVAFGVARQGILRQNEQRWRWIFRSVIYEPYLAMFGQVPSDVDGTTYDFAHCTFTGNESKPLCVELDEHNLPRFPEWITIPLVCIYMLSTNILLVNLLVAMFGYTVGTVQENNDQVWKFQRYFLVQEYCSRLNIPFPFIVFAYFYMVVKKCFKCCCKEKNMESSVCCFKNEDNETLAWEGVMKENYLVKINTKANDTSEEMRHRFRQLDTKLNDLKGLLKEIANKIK
Test: TRPM8 Human Transient Potential Ion Channel Cell Based Agonist Calcium Flux Assay (FLIPR)
Conditions: Ca2+ mobilization, fluorometric detection, 293H cells; response relative to 3 μM icilin; read-out: TRPM8 agonist EC50
pEC50: −log10 of the molar value. Where a name gives a salt, the structure may show the parent alone.
MEASURED QUANTITY: pEC50

[a] CC(C)[C@@H]1CC[C@@H](C)C[C@H]1C(=O)NCc1cc(CN)ccn1 [Compound 17, hydrochloride]
[b] CC(C)[C@@H]1CC[C@@H](C)C[C@H]1OCC(=O)N(C)Cc1cccc(CN(C)C)c1 [Compound 1, hydrochloride]
IN: Which one would you say has the larger pEC50 value: a , or b ? // output: label of the selected item
OUT: a
(a: 7.24, b: 6.01)

[I] CC(C)[C@@H]1CC[C@@H](C)C[C@H]1C(=O)NCc1ccc(CN(C)C)cc1 [Compound 21, hydrochloride]
[II] CC(C)[C@@H]1CC[C@@H](C)C[C@H]1C(=O)NCc1ccc(CN2CCOCC2)cc1 [Compound 22, hydrochloride]
[III] CC(C)[C@@H]1CC[C@@H](C)C[C@H]1C(=O)NCc1ccc(CN2CCCC2)cc1 [Compound 20, hydrochloride]
IN: Number of compounds to sort: 3. Sort criterion: pEC50, ascending. Put the labels in the order asked and list them.
OUT: II, I, III
